# Species: Rattus norvegicus
# Protocol Text: Selectivity index, ratio of IC50 for rat serum BuChE to IC50 for rat cortex AChE
Hi there, I'd appreciate the recorded Ratio IC50 for every entry that follows.

Problem: Annotate the compound `COc1ccccc1CN(C)CCCOc1ccc(-c2cc(=O)c3c(OC)c(OC)c(OC)cc3o2)cc1` with its measured Ratio IC50.
Result: 61.1

Problem: Retrieve Ratio IC50 measured for `COc1cc2oc(-c3ccc(OCCCN(C)Cc4ccccc4)cc3)cc(=O)c2c(OC)c1OC` and print it.
Result: 51.8

Problem: For the compound `CCN(CCCOc1ccc(-c2cc(=O)c3c(OC)c(OC)c(OC)cc3o2)cc1)Cc1ccccc1` , give its reported Ratio IC50.
Result: 39.9

Problem: Consider the compound `COc1ccccc1CN(C)CCCCCCOc1ccc(-c2cc(=O)c3c(O)c(OC)c(OC)cc3o2)cc1` . State its measured Ratio IC50.
Result: > 98.6

Problem: Identify Ratio IC50 associated with the compound `CCN(CCCCOc1cccc(-c2cc(=O)c3c(OC)c(OC)c(OC)cc3o2)c1)Cc1ccccc1`
Result: 27

Problem: Determine its reported Ratio IC50: `CCN(CCCCCCOc1ccc(-c2cc(=O)c3c(OC)c(OC)c(OC)cc3o2)cc1)Cc1ccccc1`
Result: > 1470

Problem: Tell me its Ratio IC50 given `COc1ccccc1CN(C)CCCCOc1ccc(-c2cc(=O)c3c(O)c(OC)c(OC)cc3o2)cc1` as the entry.
Result: > 146

Problem: Indicate its recorded Ratio IC50; the compound in question is `COc1cc2oc(-c3cccc(OCCN4CCN(C)CC4)c3)cc(=O)c2c(OC)c1OC`
Result: > 61

Problem: Entry `COc1cc2oc(-c3ccc(OCCCCCCN(C)Cc4ccccc4)cc3)cc(=O)c2c(OC)c1OC` needs its Ratio IC50 filled in; supply it.
Result: 85.5
